What IC50 was measured for each of the following?
- target.or.system: human CCR6 (Homo sapiens, UniProt P51684)
- Sequence (P51684 1-374): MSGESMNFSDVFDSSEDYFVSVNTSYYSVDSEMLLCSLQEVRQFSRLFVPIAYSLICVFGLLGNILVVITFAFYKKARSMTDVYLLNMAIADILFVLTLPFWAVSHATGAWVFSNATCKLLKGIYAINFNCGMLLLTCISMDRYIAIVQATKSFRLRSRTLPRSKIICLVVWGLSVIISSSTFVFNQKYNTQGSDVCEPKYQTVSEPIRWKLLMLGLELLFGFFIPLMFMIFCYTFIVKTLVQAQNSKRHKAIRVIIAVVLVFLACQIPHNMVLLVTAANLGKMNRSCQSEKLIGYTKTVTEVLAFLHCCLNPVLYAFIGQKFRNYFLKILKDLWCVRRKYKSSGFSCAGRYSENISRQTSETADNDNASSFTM
- assay: human CCR6 calcium flux activity (FLIPR, HEK293 cells stably expressing human CCR6, CCL20 stimulation)
- condition.parameters: HEK293 cells stably expressing human CCR6, EC80 human MIP-3 alpha/CCL20; read-out: CCR6 inhibitory activity, IC50
Give bare numbers, in nM.

Below: 3 molecules and their reported IC50.
compound_structure=CN(C)C(=O)c1nccc(Nc2c(N[C@@H](c3cccc(F)n3)C3(C)CCCC3)c(=O)c2=O)c1O target_or_system="human CCR6 (Homo sapiens, UniProt P51684)" experimental_value=7
compound_structure=CN(C)C(=O)c1nccc(Nc2c(N[C@@H](c3ccc(F)cn3)C3(C)CCCC3)c(=O)c2=O)c1O target_or_system="human CCR6 (Homo sapiens, UniProt P51684)" experimental_value=10.9
compound_structure=CN(C)C(=O)c1nccc(Nc2c(N[C@@H](c3cc(F)cc(F)n3)C3(C)CCCC3)c(=O)c2=O)c1O target_or_system="human CCR6 (Homo sapiens, UniProt P51684)" experimental_value=7.4

Now examine the next entry.
Documented IC50 of `Cc1cccnc1[C@H](Nc1c(Nc2ccc(Cl)c(C(=O)N(C)C)c2O)c(=O)c1=O)C1(C)CCCC1` : 11.7

---

- target.or.system: human CCR6 (Homo sapiens)
- Construct: expressed in transfected cells; host or cells: HEK293
- Sequence (P51684 1-374): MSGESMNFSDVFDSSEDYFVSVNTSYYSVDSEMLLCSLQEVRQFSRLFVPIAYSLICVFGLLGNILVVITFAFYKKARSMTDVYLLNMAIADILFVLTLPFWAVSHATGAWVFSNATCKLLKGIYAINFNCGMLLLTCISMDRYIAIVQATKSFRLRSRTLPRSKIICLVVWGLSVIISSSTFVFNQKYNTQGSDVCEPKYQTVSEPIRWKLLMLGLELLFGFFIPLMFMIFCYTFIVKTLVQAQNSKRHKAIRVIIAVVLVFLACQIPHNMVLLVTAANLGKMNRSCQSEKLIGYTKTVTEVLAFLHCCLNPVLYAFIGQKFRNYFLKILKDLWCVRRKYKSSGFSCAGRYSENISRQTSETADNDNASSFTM
- assay: human CCR6 calcium flux activity (FLIPR, HEK293 cells stably expressing human CCR6, CCL20 stimulation)
- Format: cell-based
- condition.parameters: ratio of CXCR2 IC50 to CCR6 IC50
In plain terms, low CCR6 selectivity, meaning strictly below 200, gives 1 (yes), and everything else gives 0 (no).

# example entries with known answers
compound="CN(C)C(=O)c1nccc(Nc2c(N[C@@H](c3ncc(F)cc3F)C3(C)CCCC3)c(=O)c2=O)c1O [compound 009]" assigned_class="0 (no)"
compound="CN(C)C(=O)c1nccc(Nc2c(N[C@@H](c3cccc(Cl)n3)C3(C)CCCC3)c(=O)c2=O)c1O [compound 003]" assigned_class="1 (yes)"
compound="CN(C)C(=O)c1nccc(Nc2c(N[C@@H](c3nc(F)ccc3F)C3(C)CCCC3)c(=O)c2=O)c1O [compound 023]" assigned_class="0 (no)"
compound="Cc1ccc(C)c([C@H](Nc2c(Nc3ccnc(C(=O)N(C)C)c3O)c(=O)c2=O)C2(C)CCCC2)n1 [compound 051]" assigned_class="0 (no)"
compound="CC#C[C@H](Nc1c(Nc2ccc(Cl)c(C(=O)N(C)C)c2O)c(=O)c1=O)C1(C)CCCC1 [compound 114]" assigned_class="1 (yes)"
compound="CC#C[C@H](Nc1c(Nc2ccnc(C(=O)N(C)C)c2O)c(=O)c1=O)C1(C)CCCC1 [compound 113]" assigned_class="1 (yes)"
compound="Cc1cccnc1[C@H](Nc1c(Nc2ccnc(C(=O)N(C)C)c2O)c(=O)c1=O)C1(C)CCCC1 [compound 018]" assigned_class="0 (no)"
compound="CN(C)C(=O)c1nccc(Nc2c(N[C@@H](c3nc(Cl)ccc3F)[C@@]3(C)CC(F)(F)CO3)c(=O)c2=O)c1O [068B]" assigned_class="0 (no)"

Problem: Please check: CCR6 selectivity for CN(C)C(=O)c1nccc(Nc2c(N[C@@H](c3nc(Cl)ccc3F)C3(C)CCCC3)c(=O)c2=O)c1O [compound 053] , strictly under 200 or not?
Result: 0 (no)

Problem: Please check: CCR6 selectivity for Cc1cccnc1[C@H](Nc1c(Nc2ccc(Cl)c(C(=O)N(C)C)c2O)c(=O)c1=O)C1(C)CCCC1 [compound 063] , strictly under 200 or not?
Result: 0 (no)

Problem: Please check: CCR6 selectivity for CC1([C@@H](Nc2c(Nc3ccnc(C(=O)N4CCOCC4)c3O)c(=O)c2=O)c2nc(F)ccc2F)CCCC1 [compound 060] , strictly under 200 or not?
Result: 0 (no)

Problem: Please check: CCR6 selectivity for CN(C)C(=O)c1nccc(Nc2c(N[C@@H](C#CC3CC3)C3(C)CCCC3)c(=O)c2=O)c1O [compound 115] , strictly under 200 or not?
Result: 1 (yes)

Problem: Please check: CCR6 selectivity for CN(C)C(=O)c1nccc(Nc2c(N[C@@H](c3nc(C(F)F)ccc3F)C3(C)CCCC3)c(=O)c2=O)c1O [compound 109] , strictly under 200 or not?
Result: 1 (yes)

Problem: Please check: CCR6 selectivity for Cc1cc(F)cnc1[C@H](Nc1c(Nc2ccnc(C(=O)N(C)C)c2O)c(=O)c1=O)[C@]1(C)CC(F)(F)CO1 [093A] , strictly under 200 or not?
Result: 0 (no)

Problem: Please check: CCR6 selectivity for CN(C)C(=O)c1nccc(Nc2c(N[C@@H](c3ncccc3Cl)C3(C)CCCC3)c(=O)c2=O)c1O [compound 019] , strictly under 200 or not?
Result: 0 (no)

Problem: Please check: CCR6 selectivity for Cc1ccc(F)nc1[C@H](Nc1c(Nc2ccnc(C(=O)N(C)C)c2O)c(=O)c1=O)C1(C)CCCC1 [compound 014] , strictly under 200 or not?
Result: 0 (no)

Problem: Please check: CCR6 selectivity for CN(C)C(=O)c1nccc(Nc2c(N[C@@H](c3cccc(CF)n3)C3(C)CCCC3)c(=O)c2=O)c1O [compound 108] , strictly under 200 or not?
Result: 1 (yes)

Problem: Please check: CCR6 selectivity for CN(C)C(=O)c1nccc(Nc2c(N[C@@H](c3nc(CF)ccc3F)C3(C)CCCC3)c(=O)c2=O)c1O [compound 094] , strictly under 200 or not?
Result: 1 (yes)

Problem: Please check: CCR6 selectivity for CN(C)C(=O)c1nccc(Nc2c(N[C@@H](c3ncccc3CF)C3(C)CCCC3)c(=O)c2=O)c1O [compound 016] , strictly under 200 or not?
Result: 0 (no)
